Where do the numbers come from? From ChEMBL document CHEMBL1131000.

target-desc: Sigma 2 receptor
assay-protocol: Binding affinity towards sigma 2 receptor site in rat liver membranes using [3H]DTG as radioligand in presence of (+)-pentazocine.
Examples of molecules with documented Ki follow.
// units = nM; emit number, no label

{"molecule": "CSc1ccc(NC(=O)NC2CCN(Cc3ccccc3)CC2)cc1", "unit-descriptor": "nM", "Ki": 80.5}
{"molecule": "O=C(Cc1ccccc1[N+](=O)[O-])NC1CCN(Cc2ccccc2)CC1", "unit-descriptor": "nM", "Ki": 493}
{"molecule": "O=C(Cc1ccc(Cl)c(Cl)c1)NC1CCN(Cc2ccccc2)CC1", "unit-descriptor": "nM", "Ki": 14.6}

# Ki of `CSc1ccc(CC(=O)NC2CCN(Cc3ccccc3)CC2)cc1` = 83.3

Recorded Ki (molecule `O=C(Cc1ccc(F)cc1)NC1CCN(Cc2ccccc2)CC1` ): 69.2

Sample `O=C(Cc1ccc([N+](=O)[O-])cc1[N+](=O)[O-])NC1CCN(Cc2ccccc2)CC1` ; Ki observed: 243

The measured Ki associated with `O=C(Cc1cccc(Br)c1)NC1CCN(Cc2ccccc2)CC1` reads 15.2

`O=C(Cc1cccc(C(F)(F)F)c1)NC1CCN(Cc2ccccc2)CC1` has a reported Ki of 37.8
